The values you see were collected from patent US20200405696A1.

- study target: Recombinant human TDO comprising amino acids 19-407 (Homo sapiens, UniProt P48775)
- Construct: Recombinant human TDO comprising amino acids 19-407 with a N-terminal hexahistidine tag; hexahistidine (His6) (N); made in house; host or cells: E. coli
- Sequence (P48775 19-406 limits assumed): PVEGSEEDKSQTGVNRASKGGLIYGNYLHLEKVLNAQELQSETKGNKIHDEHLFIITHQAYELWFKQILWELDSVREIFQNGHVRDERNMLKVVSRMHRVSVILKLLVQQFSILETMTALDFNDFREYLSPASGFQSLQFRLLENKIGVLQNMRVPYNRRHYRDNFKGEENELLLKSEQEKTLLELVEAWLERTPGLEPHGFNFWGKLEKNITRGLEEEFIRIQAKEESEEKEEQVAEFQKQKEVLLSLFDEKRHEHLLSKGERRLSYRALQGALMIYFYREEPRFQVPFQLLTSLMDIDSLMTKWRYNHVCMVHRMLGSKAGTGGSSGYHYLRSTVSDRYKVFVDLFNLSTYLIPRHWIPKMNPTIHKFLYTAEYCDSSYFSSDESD
- protocol description: TDO2 enzymatic assay (NFK quantified by LCMS)
- Type: biochemical
- condition set: 15 nM enzyme, 200 μM L-tryptophan, pH7, 30 minutes pre-incubation at RT; mean values when measured multiple times; read-out: hTDO activity (IC50 in nM)
Each entry below carries its recorded IC50.

| compound | study target | IC50 |
| --- | --- | --- |
| CC(F)(F)c1sc2cncn2c1C(O)c1cn(-c2ccc(OCCCO)c(Cl)c2)nn1 (racemic) | Recombinant human TDO comprising amino acids 19-407 (Homo sapiens, UniProt P48775) | > 10200 nM |
| CCCCNC(=O)Nc1ccc(-n2cc(C(O)c3c(CC)sc4cncn34)nn2)cc1 (racemic) | Recombinant human TDO comprising amino acids 19-407 (Homo sapiens, UniProt P48775) | 2070 nM |
| CCc1sc2cncn2c1C(O)c1cn(-c2ccc(C(=O)N3CCOCC3)cc2)nn1 (racemic) | Recombinant human TDO comprising amino acids 19-407 (Homo sapiens, UniProt P48775) | > 10200 nM |
| COc1ccc(-n2cc(C(O)c3c(C4CC4)sc4cncn34)nn2)c(F)c1Cl (racemic) | Recombinant human TDO comprising amino acids 19-407 (Homo sapiens, UniProt P48775) | > 10200 nM |
| C=C(C)c1sc2cncn2c1C(O)c1cn(-c2ccc(OCC3(F)COC3)c(Cl)c2)nn1 (racemic) | Recombinant human TDO comprising amino acids 19-407 (Homo sapiens, UniProt P48775) | > 10200 nM |
| OC(c1cnn(-c2ccccc2)c1)c1c(C2CC2)sc2cncn12 (racemic) | Recombinant human TDO comprising amino acids 19-407 (Homo sapiens, UniProt P48775) | 3350 nM |
| Oc1ccccc1Cn1cc(C(O)c2c(C3CC3)sc3cncn23)nn1 (racemic) | Recombinant human TDO comprising amino acids 19-407 (Homo sapiens, UniProt P48775) | > 10200 nM |
| OCCOc1ccc(-n2cc(C(O)c3c(C4CC4)sc4cncn34)nn2)cc1 (racemic) | Recombinant human TDO comprising amino acids 19-407 (Homo sapiens, UniProt P48775) | > 10200 nM |
| OC(c1cn(-c2ccc(N3CCOCC3)cc2)nn1)c1c(C2CC2)sc2cncn12 (racemic) | Recombinant human TDO comprising amino acids 19-407 (Homo sapiens, UniProt P48775) | > 10200 nM |
| NS(=O)(=O)c1ccc(-n2cc(C(O)c3c(C4CC4)sc4cncn34)nn2)cc1 (racemic) | Recombinant human TDO comprising amino acids 19-407 (Homo sapiens, UniProt P48775) | > 10200 nM |
| COc1ncc(-n2cc(C(O)c3c(C4CC4)sc4cncn34)nn2)c(OC)n1 (racemic) | Recombinant human TDO comprising amino acids 19-407 (Homo sapiens, UniProt P48775) | > 10200 nM |
| CCc1sc2cncn2c1C(O)c1cn(-c2cccc(C#N)c2)nn1 (racemic) | Recombinant human TDO comprising amino acids 19-407 (Homo sapiens, UniProt P48775) | > 10200 nM |
| OC(c1cn(-c2cnc(OC3CCC3)nc2)nn1)c1c(C2CC2)sc2cncn12 (racemic) | Recombinant human TDO comprising amino acids 19-407 (Homo sapiens, UniProt P48775) | > 10200 nM |
| CCc1sc2cncn2c1C(O)c1cn(-c2ccc(C(=O)NC)cc2)nn1 (racemic) | Recombinant human TDO comprising amino acids 19-407 (Homo sapiens, UniProt P48775) | > 10200 nM |
| CC1(c2sc3cncn3c2C(O)c2cn(-c3ccc(O)c(Cl)c3)nn2)CC1 (racemic) | Recombinant human TDO comprising amino acids 19-407 (Homo sapiens, UniProt P48775) | 9820 nM |

---

Entries and their IC50
- study target: Recombinant full-length human IDO1 (Homo sapiens)
- Construct: Recombinant full-length human IDO1 with a N-terminal hexahistidine tag; hexahistidine (His6) (N); made in house; host or cells: E. coli
- protocol description: IDO1 enzymatic assay (NFK quantified by LCMS)
- Format: biochemical
- condition set: 2 nM enzyme, 5 μM L-tryptophan, pH6.5, 30 minutes pre-incubation at RT; mean values when measured multiple times; read-out: hIDO activity (IC50 in nM)

| molecule | IC50 |
| --- | --- |
| OC(c1ccc(-c2ccncc2)s1)c1c(C2CC2)sc2cncn12 (racemic) [Example 168] | 189 nM |
| CCc1sc2cncn2c1C(O)c1cn(-c2ccc(NC(=O)OC)cc2)nn1 (racemic) [Example 49] | 10.9 nM |
| COc1ccccc1-c1ccc(C(O)c2c(C3CC3)sc3cncn23)s1 (racemic) [Example 166] | 587 nM |
| CC(=O)Nc1ccc(-n2cc(C(O)c3c(C4CC4)sc4cncn34)cn2)cc1 (racemic) [Example 224] | 1100 nM |

---

- study target: Recombinant human TDO comprising amino acids 19-407 (Homo sapiens)
- Construct: Recombinant human TDO comprising amino acids 19-407 with a N-terminal hexahistidine tag; hexahistidine (His6) (N); made in house; host or cells: E. coli
- protocol description: TDO2 enzymatic assay (NFK quantified by LCMS)
- Assay type: biochemical
- condition set: 15 nM enzyme, 200 μM L-tryptophan, pH7, 30 minutes pre-incubation at RT; mean values when measured multiple times; read-out: hTDO activity (IC50 in nM)

| compound | IC50 |
| --- | --- |
| CCc1sc2cncn2c1C(O)c1cn(-c2ccc(NC(=O)OC)cc2)nn1 (racemic) | 2110 nM |
| CC(C)C(=O)Nc1ccc(-n2cc([C@H](O)c3c(C4CC4)sc4cncn34)nn2)cc1 [Example 192a] | > 10200 nM |
| OC(c1cn(-c2cnc(OCc3ccccc3)nc2)nn1)c1c(C2CC2)sc2cncn12 (racemic) | > 10200 nM |
| CC(C)C(=O)Nc1ccc(-n2cc(C(O)c3c(C4CC4)sc4cncn34)nn2)cc1Cl (racemic) | > 10200 nM |
| COCCOc1ccc(-n2cc(C(O)c3c(C4CC4)sc4cncn34)nn2)cc1 (racemic) | > 10200 nM |
| Oc1cc(-n2cc(C(O)c3c(C4CC4)sc4cncn34)nn2)ccc1Cl (racemic) | > 10200 nM |
| COc1ccc(-c2ccc(C(O)c3c(C4CC4)sc4cncn34)s2)cc1 (racemic) | > 10200 nM |
| CCc1sc2cncn2c1C(O)c1cn(-c2ccc(S(=O)(=O)N3CCCC3)cc2)nn1 (racemic) | > 10200 nM |
| OCCCOc1ccc(-n2cc([C@H](O)c3c(C4CC4)sc4cncn34)nn2)cc1 [Example 137a] | > 10200 nM |
| OC(c1ccc(-c2ccc(C(F)(F)F)cc2)s1)c1c(C2CC2)sc2cncn12 (racemic) | > 10200 nM |
| Oc1c(F)cc(-n2cc(C(O)c3c(C4CC4)sc4cncn34)nn2)cc1F (racemic) | > 10200 nM |
| COc1ccc(-n2nnc(C(O)c3c(C4CC4)sc4cncn34)c2C)c(C)c1 (racemic) | 9520 nM |
| COc1cc(F)c(-n2cc(C(O)c3c(C4CC4)sc4cncn34)nn2)cc1F (racemic) | > 10200 nM |
| Cc1c(C(O)c2c(C3CC3)sc3cncn23)nnn1-c1ccccc1 (racemic) | 7150 nM |
| Cc1cc(O)cc(-n2cc(C(O)c3c(C4CC4)sc4cncn34)nn2)c1 (racemic) | > 10200 nM |
| OCCOCCOc1ccc(-n2cc(C(O)c3c(C4CC4)sc4cncn34)nn2)cc1 (racemic) | > 10200 nM |

---

- study target: Recombinant full-length human IDO1 (Homo sapiens, UniProt P14902)
- Construct: Recombinant full-length human IDO1 with a N-terminal hexahistidine tag; hexahistidine (His6) (N); made in house; host or cells: E. coli
- Sequence (P14902 whole entry): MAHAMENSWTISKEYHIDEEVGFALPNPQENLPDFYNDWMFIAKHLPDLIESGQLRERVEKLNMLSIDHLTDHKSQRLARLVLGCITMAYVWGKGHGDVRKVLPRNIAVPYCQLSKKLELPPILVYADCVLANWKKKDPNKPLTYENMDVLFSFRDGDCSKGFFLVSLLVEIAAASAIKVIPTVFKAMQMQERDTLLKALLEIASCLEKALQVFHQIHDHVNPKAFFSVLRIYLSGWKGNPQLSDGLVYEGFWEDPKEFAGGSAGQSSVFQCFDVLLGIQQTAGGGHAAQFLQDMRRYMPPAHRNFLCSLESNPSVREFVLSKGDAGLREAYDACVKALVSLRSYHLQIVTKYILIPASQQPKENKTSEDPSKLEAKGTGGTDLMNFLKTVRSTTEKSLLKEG
- protocol description: IDO1 enzymatic assay (NFK quantified by LCMS)
- Type: biochemical
- condition set: 2 nM enzyme, 5 μM L-tryptophan, pH6.5, 30 minutes pre-incubation at RT; mean values when measured multiple times; read-out: hIDO activity (IC50 in nM)

| compound | study target | units text | IC50 |
| --- | --- | --- | --- |
| COc1ccc(-n2cc(C(O)c3c(C4(C)CC4)sc4cncn34)nn2)cc1 (racemic) | Recombinant full-length human IDO1 (Homo sapiens, UniProt P14902) | nM | 38.8 |
| CCNC(=O)c1ccc(-n2cc(C(O)c3c(C4CC4)sc4cncn34)nn2)cc1 (racemic) | Recombinant full-length human IDO1 (Homo sapiens, UniProt P14902) | nM | 16.6 |
| CNS(=O)(=O)c1ccc(-n2cc(C(O)c3c(C4CC4)sc4cncn34)nn2)cc1 (racemic) | Recombinant full-length human IDO1 (Homo sapiens, UniProt P14902) | nM | 63.6 |
| NS(=O)(=O)c1ccc(-n2cc(C(O)c3c(C4CC4)sc4cncn34)nn2)cc1 (racemic) | Recombinant full-length human IDO1 (Homo sapiens, UniProt P14902) | nM | 24.3 |
| COc1ccccc1-n1cc(C(O)c2c(C3CC3)sc3cncn23)nn1 (racemic) | Recombinant full-length human IDO1 (Homo sapiens, UniProt P14902) | nM | 50.9 |
| COc1ccc(-n2cc(C(O)c3c(C(F)(F)F)sc4cncn34)nn2)cc1 (racemic) | Recombinant full-length human IDO1 (Homo sapiens, UniProt P14902) | nM | 11.4 |
| COc1ccc(-n2cc(C(O)c3c(C4CC4)sc4cncn34)nn2)c(C)c1 (racemic) | Recombinant full-length human IDO1 (Homo sapiens, UniProt P14902) | nM | 17.9 |
| O=C(c1ccc(-n2cc(C(O)c3c(C4CC4)sc4cncn34)nn2)cc1)N1CCOCC1 (racemic) | Recombinant full-length human IDO1 (Homo sapiens, UniProt P14902) | nM | 78.1 |
| CN(C)S(=O)(=O)c1ccc(-n2cc(C(O)c3c(C4CC4)sc4cncn34)nn2)cc1 (racemic) | Recombinant full-length human IDO1 (Homo sapiens, UniProt P14902) | nM | 105 |
| OC(c1nnc(-c2ccccc2)o1)c1c(C2CC2)sc2cncn12 (racemic) | Recombinant full-length human IDO1 (Homo sapiens, UniProt P14902) | nM | 586 |
| C=C(C)c1sc2cncn2c1C(O)c1cn(-c2ccc(OC)cc2)nn1 (racemic) | Recombinant full-length human IDO1 (Homo sapiens, UniProt P14902) | nM | 7.26 |
| COc1cc(C#N)cc(-n2cc(C(O)c3c(C4CC4)sc4cncn34)nn2)c1 (racemic) | Recombinant full-length human IDO1 (Homo sapiens, UniProt P14902) | nM | 52.4 |
| CC(C)(O)CCOc1ccc(-n2cc(C(O)c3c([C@@H]4C[C@@H]4F)sc4cncn34)nn2)cc1Cl (relative stereo) | Recombinant full-length human IDO1 (Homo sapiens, UniProt P14902) | nM | 17 |
| CCOc1ccc(-n2cc(C(O)c3c(C4CC4)sc4cncn34)nn2)cc1 (racemic) | Recombinant full-length human IDO1 (Homo sapiens, UniProt P14902) | nM | 5.3 |
| Cc1sc2cncn2c1C(O)c1cn(-c2cccc(C#N)c2)nn1 (racemic) | Recombinant full-length human IDO1 (Homo sapiens, UniProt P14902) | nM | 294 |
| CCc1sc2cncn2c1C(O)c1cn(-c2ccc3[nH]c(=O)oc3c2)nn1 (racemic) | Recombinant full-length human IDO1 (Homo sapiens, UniProt P14902) | nM | 7.86 |
